target: Small ribosomal subunit protein uS2 (Mus musculus); test: Binding affinity to LAMR1 in mouse B16-F10 cells assessed as maximal cell attachment to compound coated plates after 3 hrs by hemocytometer; type: cell-based
Where a SMILES comes first, the peptide text is derived from it.
assayEndpoint: Activity (%)

[
  {
    "molecule": "CC[C@H](C)[C@@H]1NC(=O)[C@H](Cc2ccc(O)cc2)NC(=O)CNC(=O)[C@H](CCCNC(=N)N)NC(=O)[C@H](CO)NC(=O)[C@@H](CO)NC1=O",
    "unitAbbrev": "%",
    "valueReported": 68
  },
  {
    "molecule": "CC[C@H](C)[C@@H]1NC(=O)[C@H](Cc2ccc(O)cc2)NC(=O)CNC(=O)[C@@H]2CCCN2C(=O)[C@H](CC(=O)O)NC(=O)[C@H](CCCNC(=N)N)NC(=O)[C@H](CO)NC(=O)CNC1=O (cyclo(DPGYIGSR))",
    "unitAbbrev": "%",
    "valueReported": 62
  },
  {
    "molecule": "CC[C@H](C)[C@@H]1NC(=O)[C@H](Cc2ccc(O)cc2)NC(=O)[C@H](CC(N)=O)NC(=O)[C@H](CCCNC(=N)N)NC(=O)[C@H](CO)NC(=O)[C@@H](CO)NC1=O",
    "unitAbbrev": "%",
    "valueReported": 45
  },
  {
    "molecule": "CC[C@H](C)[C@@H]1NC(=O)[C@H](Cc2ccc(O)cc2)NC(=O)[C@H](CC(N)=O)NC(=O)[C@H](CCCNC(=N)N)NC(=O)[C@H](CO)NC(=O)[C@@H](CCC(=O)O)NC1=O",
    "unitAbbrev": "%",
    "valueReported": 58
  }
]

Just for reference, ChEMBL document CHEMBL1156786 is where these values come from.
